protocol notes: physchem
cond: 40 °C, oil or lipid, thermodynamic from solid, Approximate Solubility (mg/mL) in Excipient: Cottonseed oil, Cottonseed oil; heating temp. 60 °C, obs. temp. 40 °C
readout: solubility

Query :: So what does the record say about solubility for C=C1CC[C@@]2(O)[C@H]3Cc4ccc(O)c5c4[C@@]2(CCN3CC2CC2)[C@H]1O5 ?
Result :: < 25 mg/mL

###

protocol notes: physchem
cond: 40 °C, organic solvent or mixture, thermodynamic from solid, Approximate Solubility (mg/mL) in Excipient: Ethanol, Ethanol; heating temp. 60 °C, obs. temp. 40 °C
readout: solubility

Query :: So what does the record say about solubility for C=C1CC[C@@]2(O)[C@H]3Cc4ccc(O)c5c4[C@@]2(CCN3CC2CC2)[C@H]1O5 [nalmefene] ?
Result :: 102 to 137 mg/mL

This collection of values is drawn from patent US10533015B1.
